# Tgt: full-length ATR (Homo sapiens (Human), UniProt Q13535)
# Sequence (Q13535 whole entry): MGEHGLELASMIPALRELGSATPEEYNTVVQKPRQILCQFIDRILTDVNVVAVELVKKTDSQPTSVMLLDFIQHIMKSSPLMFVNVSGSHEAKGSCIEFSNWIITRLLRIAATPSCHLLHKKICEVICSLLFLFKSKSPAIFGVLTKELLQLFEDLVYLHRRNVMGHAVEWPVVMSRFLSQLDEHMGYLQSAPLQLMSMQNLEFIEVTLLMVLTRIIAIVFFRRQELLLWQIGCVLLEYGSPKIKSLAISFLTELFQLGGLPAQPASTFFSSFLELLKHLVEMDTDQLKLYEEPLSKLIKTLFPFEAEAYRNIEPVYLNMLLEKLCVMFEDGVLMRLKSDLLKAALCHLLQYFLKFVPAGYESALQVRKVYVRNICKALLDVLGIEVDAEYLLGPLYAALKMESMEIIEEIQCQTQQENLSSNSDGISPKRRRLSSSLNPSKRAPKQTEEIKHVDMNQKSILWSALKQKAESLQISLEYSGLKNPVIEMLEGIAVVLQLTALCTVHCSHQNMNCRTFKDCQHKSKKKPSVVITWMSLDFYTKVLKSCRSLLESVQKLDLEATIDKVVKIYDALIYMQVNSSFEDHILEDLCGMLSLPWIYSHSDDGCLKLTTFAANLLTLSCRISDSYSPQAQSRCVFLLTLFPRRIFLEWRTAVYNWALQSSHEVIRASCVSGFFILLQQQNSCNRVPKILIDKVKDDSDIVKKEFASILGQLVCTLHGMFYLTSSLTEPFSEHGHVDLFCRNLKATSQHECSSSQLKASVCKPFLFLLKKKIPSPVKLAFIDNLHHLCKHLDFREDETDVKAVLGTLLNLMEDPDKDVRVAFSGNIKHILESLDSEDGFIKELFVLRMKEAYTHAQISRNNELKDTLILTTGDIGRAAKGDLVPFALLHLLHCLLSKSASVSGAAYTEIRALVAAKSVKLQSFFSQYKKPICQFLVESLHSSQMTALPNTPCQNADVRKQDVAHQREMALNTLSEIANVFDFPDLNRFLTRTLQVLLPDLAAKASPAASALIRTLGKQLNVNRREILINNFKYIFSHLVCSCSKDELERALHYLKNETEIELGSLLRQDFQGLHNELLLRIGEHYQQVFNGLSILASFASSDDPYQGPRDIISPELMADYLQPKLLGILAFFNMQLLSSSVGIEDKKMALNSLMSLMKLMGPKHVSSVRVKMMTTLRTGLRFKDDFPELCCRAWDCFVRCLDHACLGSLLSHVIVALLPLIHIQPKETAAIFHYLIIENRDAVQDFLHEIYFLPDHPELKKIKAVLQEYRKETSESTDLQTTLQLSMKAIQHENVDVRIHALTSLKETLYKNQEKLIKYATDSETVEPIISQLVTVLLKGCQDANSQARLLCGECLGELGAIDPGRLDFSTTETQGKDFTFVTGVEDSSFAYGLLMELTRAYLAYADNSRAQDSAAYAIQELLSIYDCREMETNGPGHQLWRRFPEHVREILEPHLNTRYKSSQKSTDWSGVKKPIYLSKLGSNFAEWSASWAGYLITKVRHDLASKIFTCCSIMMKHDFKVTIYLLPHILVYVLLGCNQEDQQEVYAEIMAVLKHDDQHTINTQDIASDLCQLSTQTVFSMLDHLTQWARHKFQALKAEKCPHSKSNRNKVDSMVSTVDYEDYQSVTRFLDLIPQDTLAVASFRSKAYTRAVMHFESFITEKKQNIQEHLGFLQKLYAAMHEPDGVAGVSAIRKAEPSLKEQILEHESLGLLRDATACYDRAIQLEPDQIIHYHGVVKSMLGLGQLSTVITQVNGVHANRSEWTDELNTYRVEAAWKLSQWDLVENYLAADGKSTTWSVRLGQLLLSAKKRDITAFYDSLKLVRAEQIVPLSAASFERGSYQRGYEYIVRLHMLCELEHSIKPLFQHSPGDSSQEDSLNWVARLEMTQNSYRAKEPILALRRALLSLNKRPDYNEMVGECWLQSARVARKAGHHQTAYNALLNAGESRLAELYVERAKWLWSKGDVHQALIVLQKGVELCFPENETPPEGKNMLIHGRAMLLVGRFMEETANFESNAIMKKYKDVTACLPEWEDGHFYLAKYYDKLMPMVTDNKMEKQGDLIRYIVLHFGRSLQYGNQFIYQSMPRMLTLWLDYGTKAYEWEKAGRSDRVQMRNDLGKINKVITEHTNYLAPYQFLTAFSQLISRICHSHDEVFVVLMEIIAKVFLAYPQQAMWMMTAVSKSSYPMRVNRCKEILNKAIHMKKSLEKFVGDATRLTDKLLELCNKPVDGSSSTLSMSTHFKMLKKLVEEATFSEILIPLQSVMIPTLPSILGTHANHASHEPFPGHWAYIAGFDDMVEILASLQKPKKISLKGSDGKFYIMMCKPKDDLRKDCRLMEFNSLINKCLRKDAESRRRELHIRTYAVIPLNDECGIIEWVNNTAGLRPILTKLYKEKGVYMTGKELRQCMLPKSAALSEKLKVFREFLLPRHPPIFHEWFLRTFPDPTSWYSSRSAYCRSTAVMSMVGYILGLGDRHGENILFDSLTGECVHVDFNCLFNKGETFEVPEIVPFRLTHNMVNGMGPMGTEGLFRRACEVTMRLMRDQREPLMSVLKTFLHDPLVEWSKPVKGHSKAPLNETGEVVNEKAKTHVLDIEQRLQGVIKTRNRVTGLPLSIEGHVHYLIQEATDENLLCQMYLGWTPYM
# Assay Summary: ATR inhibition assay (radioactive-phosphate incorporation)
# Type: biochemical
# Experimental Setup: 5 nM full-length ATR, Ki(app)
pKi: −log10 of the molar value.
Property Name: pKi

Challenge: Short answer please: pKi, full-length ATR (Homo sapiens (Human), UniProt Q13535), entry Nc1nn2cc(F)cnc2c1C(=O)Nc1cnccc1-c1ccc(C(=O)N2CCN3CCC2CC3)cc1F
Response given: 6.00 to 8.00

Data origin, for the record: patent US10787452B2
